src = patent US20250051390A1

procedure_text: in vitro
details: human, plasma
*1 amine or outer side, *2 acyl side, *3 side chain or, on linkers, in order; H or OH if unused. Where a SMILES comes first, the peptide text is derived from it. [ ]: non-standard residue; d: D form. Gly(N-4-hydroxybenzyl) = O=C(O)CNCc1ccc(O)cc1; X1 = O=C(CN(Cc1ccc(C(F)(F)F)cc1)[*:1])[*:2]; Gly(N-cPent) = O=C(O)CNC1CCCC1; Gly(NCH2cPr) = O=C(O)CNCC1CC1; Nphe = O=C(O)CNCc1ccccc1
measured_metric: remaining at 2 h, 1 μM

1. NCC(=O)N(CC(=O)N(CC(=O)N(CC(=O)N(CC(N)=O)Cc1ccccc1)Cc1ccc(O)cc1)Cc1ccc(O)cc1)CC1CC1 [DS-31, Ngly-Ncpr-Ntyr-Ntyr-Nbn-NH2] (H-G[Gly(NCH2cPr)][Gly(N-4-hydroxybenzyl)][Gly(N-4-hydroxybenzyl)][Nphe]-NH2)    > 100%
2. NCC(=O)N(CC(=O)N(CC(=O)N(CC(=O)N(CC(N)=O)Cc1ccccc1)Cc1ccc(O)cc1)Cc1ccc(O)cc1)C1CCCC1 [DS-16, Ngly-Ncpe-Ntyr-Ntyr-Nbn-NH2] (H-G[Gly(N-cPent)][Gly(N-4-hydroxybenzyl)][Gly(N-4-hydroxybenzyl)][Nphe]-NH2)    > 100%
3. NCC(=O)N(CC(=O)N(CC(=O)N(CC(=O)N(CC(N)=O)Cc1ccccc1)Cc1ccc(O)cc1)Cc1ccccc1)C1CCCC1 [DS-25, Ngly-Ncpe-Nbn-Ntyr-Nbn-NH2] (H-G[Gly(N-cPent)][Nphe][Gly(N-4-hydroxybenzyl)][Nphe]-NH2)    98.4%
4. NCC(=O)N(CCC(=O)O)CC(=O)N(CC(=O)N(CC(=O)N(CC(N)=O)Cc1ccccc1)Cc1ccc(C(F)(F)F)cc1)Cc1ccc(C(F)(F)F)cc1 [DS-71, Ngly-Nasp-Ntfp-Ntfp-Nbn-NH2]    > 100%
5. NCC(=O)N(CC(=O)N(CC(=O)N(CC(=O)N(CC(N)=O)Cc1ccc(C(F)(F)F)cc1)Cc1ccccc1)Cc1ccccc1)C1CCCC1 [DS-47, Ngly-Ncpe-Nbn-Ntfb-Nbn-NH2] (H-G[Gly(N-cPent)][Nphe][Nphe][X1]-NH2)    > 100%

---

procedure_text: in vitro
details: human, plasma
Where a SMILES comes first, the peptide text is derived from it. [ ]: non-standard residue; d: D form. Gly(N-4-hydroxybenzyl) = O=C(O)CNCc1ccc(O)cc1; Gly(N-cPent) = O=C(O)CNC1CCCC1; Nphe = O=C(O)CNCc1ccccc1
measured_metric: remaining at 0.5 h, 1 μM (%)

1. NCC(=O)N(CC(=O)N(CC(=O)N(CC(=O)N(CC(N)=O)Cc1ccccc1)Cc1ccc(O)cc1)Cc1ccccc1)C1CCCC1 [DS-25, Ngly-Ncpe-Nbn-Ntyr-Nbn-NH2] (H-G[Gly(N-cPent)][Nphe][Gly(N-4-hydroxybenzyl)][Nphe]-NH2)    98.6

---

procedure_text: in vitro
details: rat, plasma
Where a SMILES comes first, the peptide text is derived from it. [ ]: non-standard residue; d: D form. Gly(N-4-hydroxybenzyl) = O=C(O)CNCc1ccc(O)cc1; Gly(N-cPent) = O=C(O)CNC1CCCC1; Nphe = O=C(O)CNCc1ccccc1
measured_metric: remaining at 2 h, 1 μM (%)

1) NCC(=O)N(CC(=O)N(CC(=O)N(CC(=O)N(CC(N)=O)Cc1ccccc1)Cc1ccc(O)cc1)Cc1ccccc1)C1CCCC1 [DS-25, Ngly-Ncpe-Nbn-Ntyr-Nbn-NH2] (H-G[Gly(N-cPent)][Nphe][Gly(N-4-hydroxybenzyl)][Nphe]-NH2)    95.9
2) NCC(=O)N(CC(=O)N(CC(=O)N(CC(=O)N(CC(N)=O)Cc1ccccc1)Cc1ccc(O)cc1)Cc1ccc(O)cc1)C1CCCC1 [DS-16, Ngly-Ncpe-Ntyr-Ntyr-Nbn-NH2] (H-G[Gly(N-cPent)][Gly(N-4-hydroxybenzyl)][Gly(N-4-hydroxybenzyl)][Nphe]-NH2)    99.5

---

procedure_text: in vitro
details: human, plasma
*1 amine or outer side, *2 acyl side, *3 side chain or, on linkers, in order; H or OH if unused. Where a SMILES comes first, the peptide text is derived from it. [ ]: non-standard residue; d: D form. Gly(N-4-hydroxybenzyl) = O=C(O)CNCc1ccc(O)cc1; X1 = O=C(CN(Cc1ccc(C(F)(F)F)cc1)[*:1])[*:2]; Gly(N-cPent) = O=C(O)CNC1CCCC1; Gly(NCH2cPr) = O=C(O)CNCC1CC1; Nphe = O=C(O)CNCc1ccccc1
measured_metric: remaining at 0.5 h, 1 μM

1) NCC(=O)N(CC(=O)N(CC(=O)N(CC(=O)N(CC(N)=O)Cc1ccccc1)Cc1ccc(O)cc1)Cc1ccc(O)cc1)CC1CC1 [DS-31, Ngly-Ncpr-Ntyr-Ntyr-Nbn-NH2] (H-G[Gly(NCH2cPr)][Gly(N-4-hydroxybenzyl)][Gly(N-4-hydroxybenzyl)][Nphe]-NH2)    > 100%
2) NCC(=O)N(CC(=O)N(CC(=O)N(CC(=O)N(CC(N)=O)Cc1ccccc1)Cc1ccc(O)cc1)Cc1ccc(O)cc1)C1CCCC1 [DS-16, Ngly-Ncpe-Ntyr-Ntyr-Nbn-NH2] (H-G[Gly(N-cPent)][Gly(N-4-hydroxybenzyl)][Gly(N-4-hydroxybenzyl)][Nphe]-NH2)    > 100%
3) NCC(=O)N(CC(=O)N(CC(=O)N(CC(=O)N(CC(N)=O)Cc1ccc(C(F)(F)F)cc1)Cc1ccccc1)Cc1ccccc1)C1CCCC1 [DS-47, Ngly-Ncpe-Nbn-Ntfb-Nbn-NH2] (H-G[Gly(N-cPent)][Nphe][Nphe][X1]-NH2)    > 100%

---

procedure_text: physchem
details: pH 7.4
*1 amine or outer side, *2 acyl side, *3 side chain or, on linkers, in order; H or OH if unused. Where a SMILES comes first, the peptide text is derived from it. [ ]: non-standard residue; d: D form. Gly(N-4-hydroxybenzyl) = O=C(O)CNCc1ccc(O)cc1; X1 = O=C(CN(Cc1ccc(C(F)(F)F)cc1)[*:1])[*:2]; Gly(N-cPent) = O=C(O)CNC1CCCC1; Nphe = O=C(O)CNCc1ccccc1
Recorded solubility at 24 h for the following compounds
measured_metric: solubility at 24 h (µg/mL)

1) NCC(=O)N(CC(=O)N(CC(=O)N(CC(=O)N(CC(N)=O)Cc1ccccc1)Cc1ccc(O)cc1)Cc1ccc(O)cc1)C1CCCC1 [DS-16, Ngly-Ncpe-Ntyr-Ntyr-Nbn-NH2] (H-G[Gly(N-cPent)][Gly(N-4-hydroxybenzyl)][Gly(N-4-hydroxybenzyl)][Nphe]-NH2)    333
2) NCC(=O)N(CC(=O)N(CC(=O)N(CC(=O)N(CC(N)=O)Cc1ccc(C(F)(F)F)cc1)Cc1ccccc1)Cc1ccccc1)C1CCCC1 [DS-47, Ngly-Ncpe-Nbn-Ntfb-Nbn-NH2] (H-G[Gly(N-cPent)][Nphe][Nphe][X1]-NH2)    351
3) NCC(=O)N(CC(=O)N(CC(=O)N(CC(=O)N(CC(N)=O)Cc1ccccc1)Cc1ccc(O)cc1)Cc1ccccc1)C1CCCC1 [DS-25, Ngly-Ncpe-Nbn-Ntyr-Nbn-NH2] (H-G[Gly(N-cPent)][Nphe][Gly(N-4-hydroxybenzyl)][Nphe]-NH2)    325
4) NCC(=O)N(CCC(=O)O)CC(=O)N(CC(=O)N(CC(=O)N(CC(N)=O)Cc1ccccc1)Cc1ccc(C(F)(F)F)cc1)Cc1ccc(C(F)(F)F)cc1    73.3

---

procedure_text: in vitro
details: human, microsomes, pH 7.4
*1 amine or outer side, *2 acyl side, *3 side chain or, on linkers, in order; H or OH if unused. Where a SMILES comes first, the peptide text is derived from it. [ ]: non-standard residue; d: D form. Gly(N-4-hydroxybenzyl) = O=C(O)CNCc1ccc(O)cc1; X1 = O=C(CN(Cc1ccc(C(F)(F)F)cc1)[*:1])[*:2]; Gly(N-cPent) = O=C(O)CNC1CCCC1; Gly(NCH2cPr) = O=C(O)CNCC1CC1; Nphe = O=C(O)CNCc1ccccc1
measured_metric: remaining at 0.5 h, 1 μM (%)

1. NCC(=O)N(CC(=O)N(CC(=O)N(CC(=O)N(CC(N)=O)Cc1ccc(C(F)(F)F)cc1)Cc1ccccc1)Cc1ccccc1)C1CCCC1 [DS-47, Ngly-Ncpe-Nbn-Ntfb-Nbn-NH2] (H-G[Gly(N-cPent)][Nphe][Nphe][X1]-NH2)    77.2
2. NCC(=O)N(CC(=O)N(CC(=O)N(CC(=O)N(CC(N)=O)Cc1ccccc1)Cc1ccc(O)cc1)Cc1ccc(O)cc1)CC1CC1 [DS-31, Ngly-Ncpr-Ntyr-Ntyr-Nbn-NH2] (H-G[Gly(NCH2cPr)][Gly(N-4-hydroxybenzyl)][Gly(N-4-hydroxybenzyl)][Nphe]-NH2)    93.7
3. NCC(=O)N(CC(=O)N(CC(=O)N(CC(=O)N(CC(N)=O)Cc1ccccc1)Cc1ccc(O)cc1)Cc1ccccc1)C1CCCC1 [DS-25, Ngly-Ncpe-Nbn-Ntyr-Nbn-NH2] (H-G[Gly(N-cPent)][Nphe][Gly(N-4-hydroxybenzyl)][Nphe]-NH2)    93.6
4. NCC(=O)N(CC(=O)N(CC(=O)N(CC(=O)N(CC(N)=O)Cc1ccccc1)Cc1ccc(O)cc1)Cc1ccc(O)cc1)C1CCCC1 [DS-16, Ngly-Ncpe-Ntyr-Ntyr-Nbn-NH2] (H-G[Gly(N-cPent)][Gly(N-4-hydroxybenzyl)][Gly(N-4-hydroxybenzyl)][Nphe]-NH2)    87.1
